Data credit: ChEMBL document CHEMBL1201862

tested on: 786-0; assay: NCI tumour cell line growth inhibition, 48 h
Activity calls are given as the source filed them. Cut-off read from the data, not from the text of the source: active = GI50 up to about 1.1 µM and inactive = higher.
Outcome field: choose from true for active, false for inactive

COMPOUND: Cc1nc(SCC(=O)Nc2ccc(Cl)cc2)c2sc(=S)n(-c3ccccc3)c2n1
GROUP_LABEL: false

What outcome does the record of this test show for Cc1ccc(OCC2OC(n3cnc4c(Cl)nc(N)nc43)CC2Oc2ccc(C)cc2)cc1 (stereo not given) ?
false

Returns: the outcome recorded for "O=C(NCc1cccc(C(F)(F)F)c1)c1cc2sccc2nc1C(F)(F)F" in this assay.
false

---

test system: SK-MEL-5; test: NCI tumour cell line growth inhibition, 48 h
The source made the active and inactive calls. Cut-off read from the data, not from the text of the source: active = GI50 up to about 1.1 µM and inactive = higher.
MEASURED_PROPERTY: GI50

Look up and report measured GI50 for this entry: CCN1C2=NC(=O)N(C)C(=O)C2(Cl)C(C(SC)S(=O)(=O)c2ccc(C)cc2)c2ccccc21 (centres undefined)
35.6 µM (inactive)

---

system: MDA-N; assay: NCI tumour cell line growth inhibition, 48 h
Calls of active or inactive are those of the source. No stated cut-off is given here; in the data, active = GI50 up to about 1.1 µM and inactive = higher.
# valid calls are active, inactive; nothing else

Please review the entries below; each comes with its answer.
MOLECULE: COc1ccc2oc(C(=O)N3CC(CCl)c4ccc(N)cc43)cc2c1 (stereo not drawn)
GROUP_LABEL: active
--
MOLECULE: FC(F)(F)c1ccc2nc(Sc3ccccn3)cnc2c1
GROUP_LABEL: inactive
--
MOLECULE: Cn1cnc([N+](=O)[O-])c1[Se]c1nc(N)nc2c1ncn2C1OC(CO)C(O)C1O (stereo not drawn)
GROUP_LABEL: inactive

// param item: "COc1ccc(SCc2cc(OC)c(OC)c(OC)c2)cc1OC" ; yields the recorded call
inactive

I'd appreciate the recorded outcome for "CCc1n[nH]c(=O)n1N1C(=O)CCC1=O" from this test.
inactive

---

system: U-251; test: NCI tumour cell line growth inhibition, 48 h
Active and inactive are the calls of the source. Cut-off read from the data, not from the text of the source: active = GI50 up to about 1.1 µM and inactive = higher.
MEASURED_PROPERTY: GI50

Past entries and their recorded results:
MOLECULE: CCOC(=O)C(C(O)c1ccc([N+](=O)[O-])cc1)P(=O)(OCC)OCC (centres undefined)
EXPERIMENTAL_TARGET: U-251
GI50: > 100 µM (inactive)
//
MOLECULE: O=C(O)CSCC(=O)O
EXPERIMENTAL_TARGET: U-251
GI50: > 100 µM (inactive)
//
MOLECULE: O=[N+]([O-])c1cc2oc(CSc3ccccc3)nc2cc1Cl
EXPERIMENTAL_TARGET: U-251
GI50: 23.6 µM (inactive)
//
MOLECULE: CCCCCCCC(=O)OCC1OC(OC)C(NC(=O)N(CCCl)N=O)C(O)C1O (centres undefined)
EXPERIMENTAL_TARGET: U-251
GI50: 4.91 µM (inactive)
//
MOLECULE: C=CC(C)(C)C1(CC(OC)OC)C(=O)N(C)c2ccccc21 (centres undefined)
EXPERIMENTAL_TARGET: U-251
GI50: > 25 µM (inactive)

Provide GI50, system U-251, entry CC1CC(C[N+](=O)[O-])CC2(C1)OCCO2 (centres undefined)
> 100 µM (inactive)

Report GI50 under test system U-251 for "COc1ccc(OCC(=N/NC(=O)c2ccncc2)/N=C/c2cccnc2)cc1" .
> 100 µM (inactive)

---

system: 786-0; experiment: NCI tumour cell line growth inhibition, 48 h
Calls of active or inactive are those of the source. No stated cut-off is given here; in the data, active = GI50 up to about 1.1 µM and inactive = higher.
Pick from active, inactive when you respond.

Reference set (2 entries):
COMPOUND: N/C(=N\N/C=C1\C=Nc2cc(C(F)(F)F)ccc2C1=O)NO
GROUP_LABEL: inactive
//
COMPOUND: CC(C)(Cl)C(Br)CC/C(=C/CBr)CBr.CC(C)(Cl)C(Br)CC/C(=C\CBr)CBr (configuration not stated)
GROUP_LABEL: inactive

I'd appreciate the recorded outcome for "COc1ccc(/C=C2\C(=O)Nc3ccccc32)cc1OC" from this test.
inactive

I'd appreciate the recorded outcome for "COc1cc(C)cc2c1C(=O)C(Br)=CC2=O" from this test.
inactive

Tell me the recorded outcome of this test for "Cc1c2cc[n+](C)cc2c(C)c2c1[nH]c1ccc(OCC(F)(F)F)cc12" .
active

Dear all, I need the recorded test outcome for "CCOC(=O)CC[C@H](NC(=O)c1ccc(CNc2nc3cc(C(F)(F)F)ccc3nc2C(=O)OCC)cc1)C(=O)OCC" , thank you.
inactive

# lookup: test call for "CN(Cc1cnc2nc(N)nc(N)c2n1)c1ccc(C(=O)NCCS(=O)(=O)O)cc1"
inactive
